# credit: patent US20240116985A1

Measured NanoBRET Abs IC50, listed per entry for reference.
- Measured target: T1, B-cat-Halo (beta-catenin HaloTag construct expressed in HEK293 cells) (UniProt P35222 1-781)
- T1 sequence (looked up): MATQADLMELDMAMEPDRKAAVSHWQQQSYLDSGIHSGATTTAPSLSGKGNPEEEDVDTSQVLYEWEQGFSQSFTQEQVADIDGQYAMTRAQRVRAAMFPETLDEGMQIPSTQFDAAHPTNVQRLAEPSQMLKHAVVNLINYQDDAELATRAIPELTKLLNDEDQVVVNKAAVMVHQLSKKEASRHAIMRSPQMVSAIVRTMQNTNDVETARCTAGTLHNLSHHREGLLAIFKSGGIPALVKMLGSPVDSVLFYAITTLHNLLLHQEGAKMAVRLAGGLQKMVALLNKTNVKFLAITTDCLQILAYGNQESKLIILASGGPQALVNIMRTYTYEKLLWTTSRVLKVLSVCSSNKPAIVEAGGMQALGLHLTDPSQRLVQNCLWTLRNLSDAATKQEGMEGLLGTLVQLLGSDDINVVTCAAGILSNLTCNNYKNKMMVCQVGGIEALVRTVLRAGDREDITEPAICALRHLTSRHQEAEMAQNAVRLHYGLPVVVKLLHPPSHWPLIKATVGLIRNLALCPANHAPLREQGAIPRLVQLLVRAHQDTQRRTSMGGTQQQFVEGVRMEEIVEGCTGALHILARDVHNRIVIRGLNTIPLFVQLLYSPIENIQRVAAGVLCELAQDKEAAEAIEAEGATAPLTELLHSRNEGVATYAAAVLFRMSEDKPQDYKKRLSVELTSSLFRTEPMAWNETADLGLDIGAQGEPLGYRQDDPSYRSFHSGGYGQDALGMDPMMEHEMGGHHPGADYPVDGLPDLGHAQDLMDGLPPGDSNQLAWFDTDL
- Assay text: cell-based or functional assay
Starred links: 1 amine or outer side, 2 acyl side, 3 side chain; linkers in the order of their positions; H or OH if unused. Positions of bridges follow the written chain, without caps; N, C: chain ends. Non-standard residues stand in square brackets, D forms with d. Primed or numbered codes have the meaning given here. PyrS2(3) = (S)-3-amino-1-((pent-4-en-1-yloxy)carbonyl)pyrrolidine-3-carboxylic acid, stapling residue, C=CCCCOC(=O)N1CC[C@@](N[*:1])(C(=O)[*:2])C1; B5″ = 2,2-bis(4-pentenyl)glycine, stitching residue, C=CCCCC(CCCC=C)(N[*:1])C(=O)[*:2]; Phe(F5) = N[C@@H](Cc1c(F)c(F)c(F)c(F)c1F)C(=O)O; Bta = N[C@@H](Cc1csc2ccccc12)C(=O)O; αAllylPro = C=CC[C@@]1(C(=O)O)CCCN1; tBuAla = CC(C)(C)C[C@H](N)C(=O)O; 3Thi = N[C@@H](Cc1ccsc1)C(=O)O; Cha = N[C@@H](CC1CCCCC1)C(=O)O; S8 = C=CCCCCCC[C@](C)(N)C(=O)O
Write the value in µM as a bare number.

Binder	Property label	Meas value
Ac-[αAllylPro]D[Cha][B5″]DDAAFT[PyrS2(3)][Phe(F5)][Bta]S-NH2 (staple 1-4, 4-11) [I-1187]	NanoBRET Abs IC50	28.6
Ac-[αAllylPro]D[tBuAla][B5″]DDAAFL[PyrS2(3)][Phe(F5)][Bta]Q-NH2 (staple 1-4, 4-11) [I-1185]	NanoBRET Abs IC50	26.9
Ac-[αAllylPro]D[tBuAla][B5″]DDAAFL[S8][3Thi][Bta]H-NH2 (staple 1-4, 4-11) [I-1195]	NanoBRET Abs IC50	16.2

Attention now turns to another entry.
Name the reported NanoBRET Abs IC50 value associated with the binder Ac-[αAllylPro]D[tBuAla][B5″]DDAAFN[PyrS2(3)][Phe(F5)][Bta]Q-NH2 (staple 1-4, 4-11) [I-1186]
23.6
